Test system: 454973-116-R2-J3-PDC spheroids, percent test/control viability
Assay comment: Anticancer human tumor 454973-116-R2-J3-PDC patient-derived pancreatic carcinoma cell line growth inhibition [CLK]
Assay setup: second compound 0.0316 µM; first compound 0.00316 µM; stronger effect = lower value; spheroids with HUVEC and MSC
Decide using viability, T/C alone. Strictly below 90%: Met. Equal to or above 90%: Not met.

Molecule	Label class
Cn1ncnc1[C@H]1c2n[nH]c(=O)c3cc(F)cc(c23)N[C@@H]1c1ccc(F)cc1 + CNC(=O)c1ccc(Nc2nc(OC3CCCC3)c3c(-c4ccc5nc(C)oc5c4)c[nH]c3n2)c(OC)c1	Not met
COc1c(OCCCN2CCOCC2)ccc2c3n(c(=NC(=O)c4cnc(N)nc4)nc12)CCN3 + CN1CCN(c2cc(C(=O)Nc3cc4cc(-c5cnn(C)c5)ccc4cn3)ccn2)CC1	Met
CCc1c2c(nc3ccc(O)cc13)-c1cc3c(c(=O)n1C2)COC(=O)[C@]3(O)CC + CNC(=O)c1ccc(Nc2nc(OC3CCCC3)c3c(-c4ccc5nc(C)oc5c4)c[nH]c3n2)c(OC)c1	Met
CCc1c2c(nc3ccc(O)cc13)-c1cc3c(c(=O)n1C2)COC(=O)[C@]3(O)CC + CN1CCN(c2cc(C(=O)Nc3cc4cc(-c5cnn(C)c5)ccc4cn3)ccn2)CC1	Met

// query # TODO verify viability, T/C < 90% strictly for this molecule: CCN1CCN(Cc2ccc(Nc3ncc(F)c(-c4cc(F)c5nc(C)n(C(C)C)c5c4)n3)nc2)CC1 + CNC(=O)c1ccc(Nc2nc(OC3CCCC3)c3c(-c4ccc5nc(C)oc5c4)c[nH]c3n2)c(OC)c1
// result Not met

// query Another molecule: COc1c(OCCCN2CCOCC2)ccc2c3n(c(=NC(=O)c4cnc(N)nc4)nc12)CCN3 + CNC(=O)c1ccc(Nc2nc(OC3CCCC3)c3c(-c4ccc5nc(C)oc5c4)c[nH]c3n2)c(OC)c1
// result Not met

====

System: 454973-116-R2-J3-PDC spheroids, percent test/control viability
Assay comment: Anticancer human tumor 454973-116-R2-J3-PDC cell line growth inhibition [CLK]; active means viability on the fitted dose curve at most 10% of control; inactive means the rest;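 further: spheroids exposed to compounds for 7 days before readout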
Assay setup: second compound 0.1 µM; first compound 3.16 µM; spheroids with HUVEC and MSC
Could you please pick one outcome from this set? active, inactive

Use these answered entries as a reference point.
Molecule	Label class
COc1cccc2c1C(=O)c1c(O)c3c(c(O)c1C2=O)CC(O)(C(=O)CO)CC3OC1CC(N)C(O)C(C)O1 (centres undefined) + CN1CCN(c2cc(C(=O)Nc3cc4cc(-c5cnn(C)c5)ccc4cn3)ccn2)CC1	active
CCCS(=O)(=O)Nc1ccc(F)c(C(=O)c2c[nH]c3ncc(-c4ccc(Cl)cc4)cc23)c1F + CN1CCN(c2cc(C(=O)Nc3cc4cc(-c5cnn(C)c5)ccc4cn3)ccn2)CC1	inactive
CC1(C)CCC(CN2CCN(c3ccc(C(=O)NS(=O)(=O)c4ccc(NCC5CCOCC5)c([N+](=O)[O-])c4)c(Oc4cnc5[nH]ccc5c4)c3)CC2)=C(c2ccc(Cl)cc2)C1 + CN1CCN(c2cc(C(=O)Nc3cc4cc(-c5cnn(C)c5)ccc4cn3)ccn2)CC1	inactive
CC(=O)O[C@H]1C(=O)[C@@]2(C)[C@H]([C@H](OC(=O)c3ccccc3)[C@]3(O)C[C@H](OC(=O)[C@H](O)[C@@H](NC(=O)c4ccccc4)c4ccccc4)C(C)=C1C3(C)C)[C@]1(OC(C)=O)CO[C@@H]1C[C@@H]2O + CN1CCN(c2cc(C(=O)Nc3cc4cc(-c5cnn(C)c5)ccc4cn3)ccn2)CC1	active
Nc1ccn(C2OC(CO)C(O)C2(F)F)c(=O)n1 (centres undefined) + CN1CCN(c2cc(C(=O)Nc3cc4cc(-c5cnn(C)c5)ccc4cn3)ccn2)CC1	inactive
C=C(F)C(=O)N1CCN(c2nc(OCC3CCCN3C)nc3c2CCN(c2cccc4cccc(Cl)c24)C3)CC1CC#N (centres undefined) + CNC(=O)c1ccc(Nc2nc(OC3CCCC3)c3c(-c4ccc5nc(C)oc5c4)c[nH]c3n2)c(OC)c1	inactive
C#Cc1c(F)ccc2cc(O)cc(-c3ncc4c(N5CC6CCC(C5)N6)nc(OCC56CCCN5CC(F)C6)nc4c3F)c12 (centres undefined) + CNC(=O)c1ccc(Nc2nc(OC3CCCC3)c3c(-c4ccc5nc(C)oc5c4)c[nH]c3n2)c(OC)c1	inactive
CC1(C)CCC(CN2CCN(c3ccc(C(=O)NS(=O)(=O)c4ccc(NCC5CCOCC5)c([N+](=O)[O-])c4)c(Oc4cnc5[nH]ccc5c4)c3)CC2)=C(c2ccc(Cl)cc2)C1 + CNC(=O)c1ccc(Nc2nc(OC3CCCC3)c3c(-c4ccc5nc(C)oc5c4)c[nH]c3n2)c(OC)c1	inactive

// query Query: recorded result category for COC1C=CCC(C)C(C)S(=O)(=O)NC(=O)c2ccc3c(c2)N(CC2CCC21)CC1(CCCc2cc(Cl)ccc21)CO3 (centres undefined) + CNC(=O)c1ccc(Nc2nc(OC3CCCC3)c3c(-c4ccc5nc(C)oc5c4)c[nH]c3n2)c(OC)c1 in this test
// result inactive

====

// reported pIC50 per item
System: 454973-116-R2-J3-PDC spheroids, percent test/control viability
Assay comment: Anticancer human tumor 454973-116-R2-J3-PDC cell line growth inhibition [CLK];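 further: spheroids exposed to compounds for 7 days before readout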
Assay setup: curve of first compound; second compound 0.0316 µM; spheroids with HUVEC and MSC
pIC50: −log10 of the molar value.

Worked cases, pIC50 given:
Compound	Target desc	Val
CC(CO)NC(=O)c1cc(-c2ccc(Cl)cc2)nn(-c2cnn(C)c2)c1=O (stereo unspecified) + CN1CCN(c2cc(C(=O)Nc3cc4cc(-c5cnn(C)c5)ccc4cn3)ccn2)CC1	454973-116-R2-J3-PDC spheroids, percent test/control viability	< 5.00
NC(=O)C(=Cn1cnc(-c2cc(C(F)(F)F)cc(C(F)(F)F)c2)n1)c1cncnc1 + CN1CCN(c2cc(C(=O)Nc3cc4cc(-c5cnn(C)c5)ccc4cn3)ccn2)CC1	454973-116-R2-J3-PDC spheroids, percent test/control viability	6.28
CCN1CCN(Cc2ccc(Nc3ncc(F)c(-c4cc(F)c5nc(C)n(C(C)C)c5c4)n3)nc2)CC1 + CN1CCN(c2cc(C(=O)Nc3cc4cc(-c5cnn(C)c5)ccc4cn3)ccn2)CC1	454973-116-R2-J3-PDC spheroids, percent test/control viability	< 6.00
Cn1ncnc1[C@H]1c2n[nH]c(=O)c3cc(F)cc(c23)N[C@@H]1c1ccc(F)cc1 + CN1CCN(c2cc(C(=O)Nc3cc4cc(-c5cnn(C)c5)ccc4cn3)ccn2)CC1	454973-116-R2-J3-PDC spheroids, percent test/control viability	< 7.00
C=CC(=O)N1CCN(c2nc(=O)n(-c3c(C)ccnc3C(C)C)c3nc(-c4c(O)cccc4F)c(F)cc23)C(C)C1 (stereo unspecified) + CNC(=O)c1ccc(Nc2nc(OC3CCCC3)c3c(-c4ccc5nc(C)oc5c4)c[nH]c3n2)c(OC)c1	454973-116-R2-J3-PDC spheroids, percent test/control viability	< 5.00

Then this compound:
// query Entry C#Cc1c(F)ccc2cc(O)cc(-c3ncc4c(N5CC6CCC(C5)N6)nc(OCC56CCCN5CC(F)C6)nc4c3F)c12 (stereo unspecified) + CN1CCN(c2cc(C(=O)Nc3cc4cc(-c5cnn(C)c5)ccc4cn3)ccn2)CC1 has what pIC50?
// result 7.46

====

// reported viability, T/C per item
System: 454973-116-R2-J3-PDC spheroids, percent test/control viability
Assay comment: Anticancer human tumor 454973-116-R2-J3-PDC cell line growth inhibition [CLK];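 further: spheroids exposed to compounds for 7 days before readout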
Assay setup: second compound 0.1 µM; first compound 0.0316 µM; stronger effect = lower value; spheroids with HUVEC and MSC
# number only, unit % dropped from output

Molecule	viability, T/C, %
O=c1[nH]cc(F)c(=O)[nH]1 + CN1CCN(c2cc(C(=O)Nc3cc4cc(-c5cnn(C)c5)ccc4cn3)ccn2)CC1	73
CCCS(=O)(=O)Nc1ccc(F)c(C(=O)c2c[nH]c3ncc(-c4ccc(Cl)cc4)cc23)c1F + CNC(=O)c1ccc(Nc2nc(OC3CCCC3)c3c(-c4ccc5nc(C)oc5c4)c[nH]c3n2)c(OC)c1	97.5
CC(CO)NC(=O)c1cc(-c2ccc(Cl)cc2)nn(-c2cnn(C)c2)c1=O (stereo unspecified) + CNC(=O)c1ccc(Nc2nc(OC3CCCC3)c3c(-c4ccc5nc(C)oc5c4)c[nH]c3n2)c(OC)c1	105
CC(=O)O[C@H]1C(=O)[C@@]2(C)[C@H]([C@H](OC(=O)c3ccccc3)[C@]3(O)C[C@H](OC(=O)[C@H](O)[C@@H](NC(=O)c4ccccc4)c4ccccc4)C(C)=C1C3(C)C)[C@]1(OC(C)=O)CO[C@@H]1C[C@@H]2O + CN1CCN(c2cc(C(=O)Nc3cc4cc(-c5cnn(C)c5)ccc4cn3)ccn2)CC1	5.8

// query Entry Nc1ccccc1NC(=O)c1ccc(CNC(=O)OCc2cccnc2)cc1 + CNC(=O)c1ccc(Nc2nc(OC3CCCC3)c3c(-c4ccc5nc(C)oc5c4)c[nH]c3n2)c(OC)c1 has what viability, T/C?
// result 107

// query Another molecule: CC(Nc1ccc2c(c1)OCCn1cc(N3C(=O)OCC3C(F)F)nc1-2)C(N)=O (stereo unspecified) + CNC(=O)c1ccc(Nc2nc(OC3CCCC3)c3c(-c4ccc5nc(C)oc5c4)c[nH]c3n2)c(OC)c1
// result 96.8
